Cited source: patent EP4711368A1

- Tested on: SD rats
- TEST_PARAMETERS: rat, in vivo
# TI per entry
READOUT_KIND: TI

> print(dat)
                                   molecule  relation.symbol  result.value
1  C=C1N=C(c2ccccn2)c2cc(Br)ccc2N(C)C1=O [Compound 36]                =           1.9
2  CC(=O)C(C)(C)OC(=O)CCC1N=C(c2ccccn2)c2cc(Br)ccc2-n2c(C)cnc21 (centres unmarked) [Compound 6]                >           3.8
3  COC(=O)CCC1N=C(c2ccccn2)c2cc([N+](=O)[O-])ccc2N(C)C1=O (centres unmarked) [Compound 27]                >           1.8
4  CC(C)OC(=O)OC1N=C(c2ccccn2)c2cc(Br)ccc2N(C)C1=O (centres unmarked) [Compound 166]                =           2.0
5  CC(=O)OC1N=C(c2ccccn2)c2cc(Br)ccc2N(C)C1=O (centres unmarked) [Compound 164]                =           8.0
6  Cc1ccc(C(=O)OCC2N=C(c3ccccn3)c3cc(Br)ccc3-n3c(C)cnc32)cc1 (centres unmarked) [Compound 192]                =           2.0
7  C=CC(=O)OCCC1N=C(c2ccccn2)c2cc(Br)ccc2-n2c(C)cnc21 (centres unmarked) [Compound 151]                =          16.3

###

- Test system: SD rats
- TEST_PARAMETERS: rat, in vivo, iv
param class (str): category from MLD; see ranges group A (below 20 mg/kg), group B (20 mg/kg to below 40 mg/kg), group C (40 mg/kg or more)

> print(dat)
                                    molecule  discrete.label
 1  CCC(=O)OCCC1N=C(c2ccccn2)c2cc(Br)ccc2-n2c(C)cnc21 (stereo not shown) [Compound 147]         group A
 2  CCOC(=O)OCCC1N=C(c2ccccn2)c2cc(Br)ccc2-n2c(C)cnc21 (stereo not shown) [Compound 154]         group A
 3  C#CC(C)(C)OC(=O)CCC1N=C(c2ccccn2)c2cc([N+](=O)[O-])ccc2N(C)C1=O (stereo not shown) [Compound 32]         group B
 4  C=C1N=C(c2ccccn2)c2cc(Br)ccc2N(C)C1=O [Compound 36]         group A
 5  Cc1ccc(C(=O)OCC2N=C(c3ccccn3)c3cc(Br)ccc3-n3c(C)cnc32)cc1 (stereo not shown) [Compound 192]         group A
 6  Cc1cnc2n1-c1ccc(Br)cc1C(c1ccccn1)=NC2COC(=O)CN(C)C (stereo not shown) [Compound 196]         group C
 7  O=CN1CCN2N=C(c3ccccn3)c3cc(Br)ccc3N=C12 [Compound 322]         group B
 8  Cc1cnc2n1-c1ccc(Br)cc1C(c1ccccn1)=NC2CCOC(=O)CCl (stereo not shown) [Compound 148]         group C
 9  Cc1cnc2n1-c1ccc(Br)cc1C(c1ccccn1)=NC2CCOC(=O)CCCl (stereo not shown) [Compound 150]         group A
10  CC(C)OC(=O)CCC1N=C(c2ccccn2)c2cc3nc(C(F)(F)F)sc3cc2N(C)C1=O (stereo not shown) [Compound 181]         group C
11  Cc1cnc2n1-c1ccc(Br)cc1C(c1ccccn1)=NC2CCOC(=O)C(C)C (stereo not shown) [Compound 146]         group A
12  CC(=O)OCCC1N=C(c2ccccn2)c2cc(Br)ccc2-n2c(C)cnc21 (stereo not shown) [Compound 145]         group B
